- System: human primary hepatocytes (PHH)
- Assay remarks: Cell viability of PHH by CellTiter-Glo
- Assay type: cell-based
- Cond: administration before infection, Day 22
Assay readout: CC50

q: Tell me the measured CC50 of `COCCCOc1cc2c(cc1Cl)-c1cc(=O)c(C(=O)O)cn1[C@H](c1cccs1)O2` , please.
a: > 1 µM

###

- Assay remarks: Cell viability of PHH by CellTiter-Glo
- Format: cell-based, human
- Cond: human, primary human hepatocytes (PHH), HBV infection model, administration after infection, Day 22
Assay readout: CC50 at 22 day of experiment (read-out)

q: Param item = COCCCOc1cc2c(cc1Cl)-c1cc(=O)c(C(=O)O)cn1[C@H](c1cccs1)O2 [WWS0] ; retrieve measured CC50 at 22 day of experiment (read-out).
a: > 1 µM

###

- System: D-type HBV
- Assay remarks: Single drug anti-HBV activity in HepG2-NTCP in vitro infection model
- Type: cell-based, Hepatitis B Virus
- Cond: Hepatitis B virus, 216 h, HepG2-NTCP, day 9, read-out: HBsAg EC50
Assay readout: pEC50
A value of pEC50 is the negative decimal logarithm of a concentration given in moles per litre.

q: Please give the measured pEC50 for this compound: `COCCCOc1cc2c(cc1Cl)-c1cc(=O)c(C(=O)O)cn1[C@H](c1cccs1)O2`
a: 8.50

###

- Test system: D-type HBV
- Assay remarks: Single drug in vitro antiviral activity in HBV-infected PHH (HBV DNA qPCR, HBeAg and HBsAg ELISA)
- Format: cell-based, Hepatitis B Virus
- Cond: Hepatitis B virus, 192 h, PHH, administration after infection, Day 8; read-out: EC50 (Day 8) HBV DNA
- Description: 1. The PHH model was used to evaluate the single drug in vitro antiviral activity of the test compound On day 0, primary human hepatocytes were resuscitated and plated into two 48-well plates (1.32×10^5 cells/well). On day 1, HBV was added to infect PHH (2000 GE/cell). […] The medium was replaced with the fresh medium containing the compound on days 4, 6, 8, 10, 12, 14, 16, 18 and 20. On day 22, the culture supernatant was collected and cell viability was detected using CellTiter-Glo. […]
Assay readout: EC50 (µM)
Quick reminder: number only, in µM, skip the unit.

q: // EC50 lookup, key: COCCCOc1cc2c(cc1Cl)-c1cc(=O)c(C(=O)O)cn1[C@H](c1cccs1)O2 [WWS0]
a: 0.0455

###

- Assay remarks: Cytotoxicity in HepG2-NTCP cells by CellTiter-Glo
- Assay type: cell-based, human
- Cond: human, single drug, day 9
- From the text: […] 2.5 On day 9, cell plate supernatant treated by compound was collected and DNA was extracted according to the QIAamp 96 DNA Blood Kit (12) instructions. HBeAg and HBsAg were detected according to the instructions of ELISA detection kit, meanwhile, the cytotoxicity of compound pairs was detected by CellTiter-Glo kit, and the chemiluminescence intensity (RLU) of each cell well was detected by multifunctional microplate reader according to the method of kit instructions. […]
Assay readout: CC50 at 9 day of experiment (read-out)

>>> test_result("C=C1[C@H](CO)[C@@H](O)C[C@@H]1n1cnc2c(=O)[nH]c(N)nc21 [ETV, Entecavir, reference compound]")
"> 20 nM"

// switching to the query compound
q: Quick one: CC50 at 9 day of experiment (read-out) for COCCCOc1cc2c(cc1Cl)-c1cc(=O)c(C(=O)O)cn1[C@H](c1cccs1)O2 [WWS0] ?
a: > 100 nM
